Attribute: pEC50
- MEASURED_ON: KRAS-G12D protein (Homo sapiens, UniProt P01116, G12D)
- Sequence (P01116 1-188 isoform P01116-2 G12D): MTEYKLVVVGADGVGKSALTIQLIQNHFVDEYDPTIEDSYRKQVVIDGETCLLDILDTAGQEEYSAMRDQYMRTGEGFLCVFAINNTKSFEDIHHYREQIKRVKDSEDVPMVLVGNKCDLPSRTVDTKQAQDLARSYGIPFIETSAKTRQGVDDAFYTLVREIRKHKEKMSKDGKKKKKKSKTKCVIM
- EXPERIMENT_DESCRIPTION: SOS-mediated nucleotide exchange assay (BODIPY-GDP / Tb-streptavidin TR-FRET)
- Format: biochemical
*1 amine or outer side, *2 acyl side, *3 side chain or, on linkers, in order; H or OH if unused. Where a SMILES comes first, the peptide text is derived from it. Bridges are numbered along the chain shown (N, C = ends). [ ]: non-standard residue; d: D form. Ala(pyrimidin-5-yl) = N[C@@H](Cc1cncnc1)C(=O)O; Nle(5,5-F2) = CC(F)(F)CC[C@H](N)C(=O)O; Phe(2-F) = N[C@@H](Cc1ccccc1F)C(=O)O; NMe3Pal = CN[C@@H](Cc1cccnc1)C(=O)O; X1 = O=C(C12CC(CN[*:1])(C1)C2)[*:2]; Ala(cPr) = N[C@@H](CC1CC1)C(=O)O; NMeF = CN[C@@H](Cc1ccccc1)C(=O)O; PhLac = O=C(O)[C@@H](O)Cc1ccccc1; 3Pal = N[C@@H](Cc1cccnc1)C(=O)O; hLys = NCCCCC[C@H](N)C(=O)O; αMeC = C[C@](N)(CS)C(=O)O; NMeA = CN[C@@H](C)C(=O)O; Nle = CCCC[C@H](N)C(=O)O
API: returns pEC50 as number; meaning -log10 of concentration in mol/L.

// worked examples, pEC50 included
>  <COMPOUND>
C[C@H]1C(=O)N[C@@H](Cc2cncnc2)C(=O)N[C@@H](CC2CC2)C(=O)N[C@@H](Cc2ccccc2F)C(=O)N[C@@H](CCC(C)(F)F)C(=O)N(C)[C@@H](Cc2ccccc2)C(=O)NCC23CC(C2)(C3)C(=O)O[C@@H](Cc2ccccc2)C(=O)N1C [compound 276] (cyclo([Ala(cPr)][Phe(2-F)][Nle(5,5-F2)][NMeF][X1][PhLac][NMeA][Ala(pyrimidin-5-yl)]))

>  <ENDPOINT_LABEL>
pEC50

>  <TEST_RESULT>
9.00

$$$$
>  <COMPOUND>
CC(C)C[C@@H]1NC(=O)[C@H](Cc2ccc(O)cc2)NC(=O)[C@H](CCCNC(=N)N)NC(=O)[C@H](Cc2ccccc2)NC(=O)CSC[C@@H](C(N)=O)NC(=O)[C@H](Cc2ccccc2)N(C)C(=O)[C@H](CCCCCN)NC(=O)[C@H](Cc2ccc(O)cc2)NC1=O [compound 13, cyclo(F-R-Y-L-Y-hK-NMcF-Cl-ClAc)] ({CH2CO}-FRYLY[hLys][NMeF]C-NH2; thioether N-8)

>  <ENDPOINT_LABEL>
pEC50

>  <TEST_RESULT>
5.25

$$$$

Turning now to a further record.
Any idea what pEC50 was measured for CCCC[C@@H]1NC(=O)[C@H](Cc2cccnc2)NC(=O)[C@H](CCCNC(=N)N)NC(=O)[C@H](Cc2ccccc2)NC(=O)CSC[C@@](C)(C(=O)N(C)C)NC(=O)[C@H](Cc2cccnc2)N(C)C(=O)[C@H](CCCC)NC(=O)[C@H](Cc2ccccc2F)NC1=O [compound 184] ({CH2CO}-FR[3Pal][Nle][Phe(2-F)][Nle][NMe3Pal][αMeC]-NMe2; thioether N-8) ?
6.14

###

- MEASURED_ON: KRAS-G12D protein (Homo sapiens, UniProt P01116, G12D)
- EXPERIMENT_DESCRIPTION: SOS-mediated nucleotide exchange assay (BODIPY-GDP / Tb-streptavidin TR-FRET)
- Type: biochemical
*1 amine or outer side, *2 acyl side, *3 side chain or, on linkers, in order; H or OH if unused. Where a SMILES comes first, the peptide text is derived from it. Bridges are numbered along the chain shown (N, C = ends). [ ]: non-standard residue; d: D form. Phe(4-guanidino) = N=C(N)Nc1ccc(C[C@H](N)C(=O)O)cc1; X23 = O=C([C@H](Cc1ccc(C(F)(F)F)nc1)N[*:1])[*:2]; X55 = O=C([C@H](Cc1coc(-c2ccccc2)n1)N[*:1])[*:2]; Ala(pyrimidin-5-yl) = N[C@@H](Cc1cncnc1)C(=O)O; X15 = O=C([C@H](Cc1cnccc1F)N[*:1])[*:2]; NMeAha = CN[C@@H](CCN=[N+]=[N-])C(=O)O; Phe(2-F) = N[C@@H](Cc1ccccc1F)C(=O)O; NMe3Pal = CN[C@@H](Cc1cccnc1)C(=O)O; X1 = O=C(C12CC(CN[*:1])(C1)C2)[*:2]; X38 = NC(=O)CCCN(CC(=O)[*:2])[*:1]; Ala(cPr) = N[C@@H](CC1CC1)C(=O)O; NMeF = CN[C@@H](Cc1ccccc1)C(=O)O; PhLac = O=C(O)[C@@H](O)Cc1ccccc1; Ahp(2) = CCCCC[C@H](N)C(=O)O; Cba = N[C@@H](CC1CCC1)C(=O)O; hLeu = CC(C)CC[C@H](N)C(=O)O; αMeC = C[C@](N)(CS)C(=O)O; NMeA = CN[C@@H](C)C(=O)O; Nle = CCCC[C@H](N)C(=O)O
Attribute: EC50

>  <COMPOUND>
CCCC[C@@H]1NC(=O)[C@H](Cc2coc(-c3ccccc3)n2)NC(=O)[C@H](C)N(C)C(=O)[C@H](Cc2ccccc2)OC(=O)C23CC(CNC(=O)[C@H](Cc4ccccc4)N(C)C(=O)[C@H](CCCC)NC(=O)[C@H](Cc4ccccc4F)NC1=O)(C2)C3 [compound 307] (cyclo([NMeA][X55][Nle][Phe(2-F)][Nle][NMeF][X1][PhLac]))

>  <EC50>
155 nM

$$$$
>  <COMPOUND>
CCCCC[C@@H]1NC(=O)[C@H](Cc2ccc(O)cc2)NC(=O)[C@H](CCCC)NC(=O)[C@H](Cc2ccc(O)cc2)NC(=O)[C@H](CCCNC(=N)N)NC(=O)[C@H](Cc2ccccc2)NC(=O)CSC[C@@H](C(N)=O)NC(=O)[C@H](Cc2ccccc2)N(C)C1=O [compound 12, cyclo(F-R-Y-Nle-Y-Ahp-NMeF-Cl-ClAc)] ({CH2CO}-FRY[Nle]Y[Ahp(2)][NMeF]C-NH2; thioether N-8)

>  <EC50>
1190 nM

$$$$
>  <COMPOUND>
CCCCC[C@@H]1NC(=O)[C@H](Cc2ccc(OC)cc2)NC(=O)[C@H](CC2CCC2)NC(=O)[C@H](Cc2ccc(NC(=N)N)cc2)NC(=O)CN(CCCC(N)=O)C(=O)[C@H](Cc2ccccc2)NC(=O)CSC[C@@](C)(C(N)=O)NC(=O)[C@H](Cc2ccccc2)N(C)C1=O [compound 386] ({CH2CO}-F[X38][Phe(4-guanidino)][Cba]Y(Me)[Ahp(2)][NMeF][αMeC]-NH2; thioether N-8)

>  <EC50>
134 nM

$$$$

Any idea what EC50 was measured for CCCC[C@@H]1NC(=O)[C@H](Cc2ccc(C(F)(F)F)nc2)NC(=O)[C@H](CCN=[N+]=[N-])N(C)C(=O)[C@H](Cc2ccccc2)OC(=O)C23CC(CNC(=O)[C@H](Cc4cccnc4)N(C)C(=O)[C@H](CCCC)NC(=O)[C@H](Cc4ccccc4F)NC1=O)(C2)C3 [compound 241] (cyclo([NMe3Pal][X1][PhLac][NMeAha][X23][Nle][Phe(2-F)][Nle])) ?
435 nM

Please answer likewise for CC(C)CC[C@@H]1NC(=O)[C@H](Cc2cnccc2F)NC(=O)[C@H](CC2CC2)NC(=O)[C@H](Cc2cncnc2)NC(=O)[C@H](C)N(C)C(=O)[C@H](Cc2ccccc2)OC(=O)C23CC(CNC(=O)[C@H](Cc4ccccc4)N(C)C1=O)(C2)C3 [compound 213] (cyclo([Ala(cPr)][X15][hLeu][NMeF][X1][PhLac][NMeA][Ala(pyrimidin-5-yl)]))
3.72 nM

Please answer likewise for CCCCC[C@@H]1NC(=O)[C@H](Cc2ccc(OC)cc2)NC(=O)[C@H](CC2CCC2)NC(=O)[C@H](Cc2ccoc2)NC(=O)[C@H](CCCNC(=N)N)NC(=O)[C@H](Cc2ccccc2)NC(=O)CSC[C@@](C)(C(N)=O)NC(=O)[C@H](Cc2ccccc2)N(C)C1=O [compound 371]
82.6 nM

###

- MEASURED_ON: KRAS-G12D protein (Homo sapiens, UniProt P01116, G12D)
- EXPERIMENT_DESCRIPTION: SOS-mediated nucleotide exchange assay (BODIPY-GDP / Tb-streptavidin TR-FRET)
- Assay type: biochemical
*1 amine or outer side, *2 acyl side, *3 side chain or, on linkers, in order; H or OH if unused. Where a SMILES comes first, the peptide text is derived from it. Bridges are numbered along the chain shown (N, C = ends). [ ]: non-standard residue; d: D form. NMe3Pal(6-Me) = CN[C@@H](Cc1ccc(C)nc1)C(=O)O; 1Nal = N[C@@H](Cc1cccc2ccccc12)C(=O)O; Phe(2-F) = N[C@@H](Cc1ccccc1F)C(=O)O; X1 = O=C(C12CC(CN[*:1])(C1)C2)[*:2]; NMeOrn(Me) = CNCCC[C@H](NC)C(=O)O; NMeF = CN[C@@H](Cc1ccccc1)C(=O)O; PhLac = O=C(O)[C@@H](O)Cc1ccccc1; 3Pal = N[C@@H](Cc1cccnc1)C(=O)O; 4Pal = N[C@@H](Cc1ccncc1)C(=O)O; 3Thi = N[C@@H](Cc1ccsc1)C(=O)O; Ahp(2) = CCCCC[C@H](N)C(=O)O; Cba = N[C@@H](CC1CCC1)C(=O)O; αMeC = C[C@](N)(CS)C(=O)O; NMeA = CN[C@@H](C)C(=O)O; Nle = CCCC[C@H](N)C(=O)O; Nva = CCC[C@H](N)C(=O)O
Attribute: pEC50
API: returns pEC50 as number; meaning -log10 of concentration in mol/L.

>  <COMPOUND>
CCCC[C@@H]1NC(=O)[C@H](Cc2ccncc2)NC(=O)[C@H](CCCNC(=N)N)NC(=O)[C@H](Cc2cccc3ccccc23)NC(=O)CSC[C@H](C(=O)O)NC(=O)[C@H](Cc2ccccc2)N(C)C(=O)[C@H](CCC)NC(=O)[C@H](Cc2ccc(O)cc2)NC1=O [compound 140] ({CH2CO}-[1Nal]R[4Pal][Nle]Y[Nva][NMeF][dC]-OH; thioether N-8)

>  <pEC50>
5.93

$$$$

Any idea what pEC50 was measured for CCCCC[C@@H]1NC(=O)[C@H](Cc2ccc(OC)cc2)NC(=O)[C@H](CC2CCC2)NC(=O)[C@H](Cc2cccnc2)NC(=O)[C@H](CCCNC)N(C)C(=O)[C@H](Cc2ccccc2)NC(=O)CSC[C@@](C)(C(N)=O)NC(=O)[C@H](Cc2ccc(C)nc2)N(C)C1=O [compound 393] ({CH2CO}-F[NMeOrn(Me)][3Pal][Cba]Y(Me)[Ahp(2)][NMe3Pal(6-Me)][αMeC]-NH2; thioether N-8) ?
6.88

Please answer likewise for CCCC[C@@H]1NC(=O)[C@H](Cc2ccsc2)NC(=O)[C@H](C)N(C)C(=O)[C@H](Cc2ccccc2)OC(=O)C23CC(CNC(=O)[C@H](Cc4ccccc4)N(C)C(=O)[C@H](CCCC)NC(=O)[C@H](Cc4ccccc4F)NC1=O)(C2)C3 [compound 318] (cyclo([3Thi][Nle][Phe(2-F)][Nle][NMeF][X1][PhLac][NMeA]))
6.28

Please answer likewise for CCCC[C@@H]1NC(=O)[C@H](Cc2ccc(O)cc2)NC(=O)[C@H](CC(C)C)NC(=O)[C@H](Cc2ccc(OC)cc2)NC(=O)[C@H](CCCNC(=N)N)NC(=O)[C@H](Cc2ccccc2)NC(=O)CSCCNC(=O)[C@H](Cc2ccccc2)N(C)C1=O [compound 72]
5.65
